Assay: in vivo
Settings: male, beagle, dog, po, 10 mg/kg, t1/2
READOUT_NAME: half-life

Fill blank: measured half-life of the compound `CNC(=O)c1ccc(Nc2ncc(C(F)(F)F)c(NCc3nccnc3N(C)S(C)(=O)=O)n2)cc1` is ____.
~3.9 h

----------
Assay: in vivo
Settings: male, beagle, dog, po, 10 mg/kg, Tmax
READOUT_NAME: Tmax (h)
Field format: number, assumed h, no unit text.

Fill blank: measured Tmax of the molecule `CNC(=O)c1ccc(Nc2ncc(C(F)(F)F)c(NCc3nccnc3N(C)S(C)(=O)=O)n2)cc1` is ____.
2

----------
Conditions: male, beagle, dog, in vivo, po
READOUT_NAME: Mean AUCinf/Dose

Fill blank: measured Mean AUCinf/Dose of the compound CNC(=O)c1ccc(Nc2ncc(C(F)(F)F)c(NCc3nccnc3N(C)S(C)(=O)=O)n2)cc1 [VS-6063] is ____.
312 ng·h/mL per mg/kg

----------
Test: in vivo
Conditions: male, beagle, dog, po, Tmax
READOUT_NAME: Tmax

Fill blank: measured Tmax of the compound CNC(=O)c1ccc(Nc2ncc(C(F)(F)F)c(NCc3nccnc3N(C)S(C)(=O)=O)n2)cc1 [VS-6063] is ____.
2 to 4 h
